- testTarget: recombinant full-length PfCSP (Plasmodium falciparum circumsporozoite protein, strain NF54) (Plasmodium falciparum NF54, UniProt P19597)
- Sequence (P19597 20-375): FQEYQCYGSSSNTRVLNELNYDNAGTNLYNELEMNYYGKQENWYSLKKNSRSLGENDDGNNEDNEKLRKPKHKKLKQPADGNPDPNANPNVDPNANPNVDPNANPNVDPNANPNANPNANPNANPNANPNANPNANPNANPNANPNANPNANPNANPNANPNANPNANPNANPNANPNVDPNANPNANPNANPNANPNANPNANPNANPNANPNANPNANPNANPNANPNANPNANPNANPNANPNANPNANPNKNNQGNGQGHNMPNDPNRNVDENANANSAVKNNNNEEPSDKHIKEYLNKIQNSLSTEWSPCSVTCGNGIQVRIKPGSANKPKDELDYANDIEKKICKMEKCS
assayEndpoint: binding result

CL-460506 (antibody, V domains shown) VH: QVQLVESGGGVVQPGRSLRLSCAASGFTFSNYGMHWVRQAPGKGLEWMAIIWYDGSNKYYADSVKGRFTISRDNSMNTLYLQMNSLRPEDTALYYCARAFYYGSGTLDYWGQGTLVTVSS VL: EIVLTQSPATLSVSPGERATLSCRASQSVSSHLAWYQQKFGQAPRLLIYGASNRATGIPARFSGSGSGTEFTLTISILQSEDFAVYYCQQYNNWFTFGPGTKIDIK ... binds
CL-510700 (antibody, V domains shown) VH: QVQLVESGGGVVQPGRSLRLSCAASGFTFSDFGMHWVRQTPGKGLEWVAIIWYDGSNKFYADSVKGRFTISRDNSKNTLFLQMNSLRAEDTAVYYCARSGVYYGSGSHFDYWGQGTLVTVSS VL: DIQMTQSPSTLSASVGDRVTITCRASQSISSWLAWYQLKPGKAPKLLIYKASNLETGVPLRFSGSGSGTEFTLTISSLQPDDFATYYCQQYNSYLTFGQGTKVEIK ... binds
